OUTCOME_MEASURE: melting point

MOLECULE: Cc1ccc(F)c(NS(=O)(=O)c2n[nH]c(NC=O)n2)c1F
melting point: 270 to 273 °C

So what's the measured melting point for this one? `CN(C)C(=O)N(C)C(=O)Nc1ccc(Cl)cc1`
94.5 to 95 °C

So what's the measured melting point for this one? CNCCC(O)(COc1ccccc1)c1ccccc1 (stereo unspecified)
98 to 99 °C

So what's the measured melting point for this one? `COc1cc(N2CCC(N3CCCOCC3)CC2)ccc1Nc1ncc2ccc(-c3ccccc3OC)n2n1`
75 to 82 °C

---

OUTCOME_MEASURE: melting point

Example molecules with recorded melting point:
MOL_SMILES: CC(C)c1cc2c(c3c1C(=O)N(CCl)S3(=O)=O)OCO2
OUTCOME_MEASURE: melting point
TEST_VALUE: 174 to 176 °C
//
MOL_SMILES: O=C(O)Cc1cccc2c(=O)cc(-c3ccccc3F)oc12
OUTCOME_MEASURE: melting point
TEST_VALUE: 179 to 181 °C
//
MOL_SMILES: Cc1ncc(-c2ccc3[nH]c4c(cc(-c5ccc(Cl)cc5Cl)c(=O)n4C)c3c2)o1
OUTCOME_MEASURE: melting point
TEST_VALUE: 338 to 340 °C

So what's the measured melting point for this one? `Cc1cc(-c2ccc(C(=O)O)cc2)ccn1`
293 to 294 °C

So what's the measured melting point for this one? `COc1ccc(CN(CCC(=O)O)c2nc(NC(=O)Nc3ccccc3OC)nc(Oc3ccc4ccccc4c3)n2)cc1`
197 to 205 °C

---

Catalogue of melting point readings, one per entry.

Example compounds with recorded melting point:
COMPOUND: CNC(c1ccc(O)cc1)c1csc(S(N)(=O)=O)c1 (centres undefined)
OUTCOME_MEASURE: melting point
TEST_VALUE: 127 to 129 °C
--
COMPOUND: CC(C)(C)C(NC(=O)Nc1ccccc1F)NC(=O)c1ccc(Cl)cc1 (centres undefined)
OUTCOME_MEASURE: melting point
TEST_VALUE: 229 to 230 °C
--
COMPOUND: Nc1ncc(-c2ccc3ncc(-c4ccc(CO)cc4)n3n2)cc1C(F)(F)F
OUTCOME_MEASURE: melting point
TEST_VALUE: 290 to 292 °C
--
COMPOUND: CCc1noc(-c2ncc3[nH]c4c(c3c2COC)CCCC4)n1
OUTCOME_MEASURE: melting point
TEST_VALUE: 197 to 199 °C
--
COMPOUND: CCc1cccc(C)c1CNc1cc(C(=O)NCCO)cc2c1nc(C)n2C
OUTCOME_MEASURE: melting point
TEST_VALUE: 200 to 201 °C
--
COMPOUND: Cc1cccc(NC(=O)c2ccc(C(=O)N3Cc4ccccc4Cc4ccccc43)cc2)c1C
OUTCOME_MEASURE: melting point
TEST_VALUE: 248 to 251 °C

So what's the measured melting point for this one? `O=C(Nc1c[nH]nc1C(=O)NC1CCCCC1)c1ccccn1`
262 to 263 °C

So what's the measured melting point for this one? O=c1oc2c(c(O)c1C(c1ccccc1)C1CC1)CCCCC2CCC1OCCO1 (centres undefined)
68 to 76 °C

So what's the measured melting point for this one? `COc1ccc(C(=O)Nc2ccccc2)cc1NS(=O)(=O)c1ccc(C(F)(F)F)cc1`
197 to 198 °C

---

OUTCOME_MEASURE: melting point (°C)

1: CCCCC[C@H]1CC[C@H](c2cnc(C#N)nc2)CC1
2: CC(=O)Nc1c(OCc2ccccc2)cc(Br)cc1N(C)C
Which shows the larger melting point value: 1 or 2 ? State the label of the item chosen.
2

---

Catalogue of melting point readings, one per entry.

COMPOUND: Nc1nnnc(-c2c[nH]nn2)c1-c1cnnnn1
melting point: 215 °C
//
COMPOUND: Cc1ccccc1CNc1ncnc2c1ncn2C1OC(CO)C(O)C1O (stereo unspecified)
melting point: 162 to 164 °C
//
COMPOUND: O=C(O)c1cccc(-c2ccc(F)c3cc(Cc4cc(F)cc(Cl)c4)sc23)c1
melting point: 185 to 186 °C
//
COMPOUND: CCc1cc2[nH]ccc(=O)c2c(CC)n1
melting point: 207 to 208 °C
//
COMPOUND: C=CCN(C)S(=O)(=O)CC(=O)C=C(C)N
melting point: 86 to 89 °C
//
COMPOUND: O=C1c2ccccc2C(=O)N1Cc1ccc(/C=C/C(c2cc(Cl)cc(Cl)c2)C(F)(F)F)cc1Cl (stereo unspecified)
melting point: 141 to 143 °C
//
COMPOUND: CC(=O)OCc1ccc([N+](=O)[O-])cc1
melting point: 77 to 78 °C
//
COMPOUND: CC1(CO)Cn2cc([N+](=O)[O-])nc2O1 (stereo unspecified)
melting point: 162 to 163 °C

So what's the measured melting point for this one? `CC(C)(C)OC(=O)c1cc(-c2ccccc2)c(=O)n2ccc3ccsc3c12`
155 to 157 °C

So what's the measured melting point for this one? O=S1CCON=C1c1cccc(F)c1 (stereo unspecified)
79 °C

So what's the measured melting point for this one? `COc1ccc2c(c1)cc(C=O)n2S(=O)(=O)c1ccccc1`
123 to 124 °C

---

Catalogue of melting point readings, one per entry.

COMPOUND: O=CC1=Cc2cc(OCc3ccc(C(F)(F)F)cc3)ccc2OC1
melting point: 108 to 110 °C
--
COMPOUND: CCC(=NNC(=O)c1cccc(C(F)(F)F)c1)c1cccnc1
melting point: 119 °C
--
COMPOUND: C=CCc1c(O)nc(N)nc1O
melting point: > 250 °C

So what's the measured melting point for this one? `CC(=O)NC[C@H]1CN(c2cc(F)c(N3CCC(n4ncn(C)c4=S)CC3)c(F)c2)C(=O)O1`
168 to 170 °C

So what's the measured melting point for this one? CCC(C(=O)O)c1ccc(C(=O)c2ccc(Cl)cc2)n1C (stereo unspecified)
108 to 112 °C

So what's the measured melting point for this one? `O=c1cc(S)sc2cc(N3CCOCC3)ccc12`
> 250 °C

---

Catalogue of melting point readings, one per entry.

COMPOUND: CCOC(=O)c1c(N2CCOCC2)c2ccc(C)nc2n(CC)c1=O
melting point: 129 to 131 °C
--
COMPOUND: CC1(C)CCC(C)(C)c2c(OCc3ccc(F)cc3)cc(C(=O)/C=C/c3ccc(C(=O)O)cc3)cc21
melting point: 241 °C
--
COMPOUND: COc1cc2nc(N)nc(-c3ccc(O)c(F)c3)c2cc1OC
melting point: 268 to 270 °C

Now look at this entry.
So what's the measured melting point for this one? `COC(=O)N(C)CCc1ccc2[nH]c(C)c(S(=O)(=O)c3ccccc3)c2c1`
188 to 191 °C

---

OUTCOME_MEASURE: melting point

Example compounds with recorded melting point:
COMPOUND: CCOC(=O)c1cnc2sccc2c1Cl
TEST_VALUE: 71 to 72 °C

COMPOUND: CCNC(=O)OCCOc1ccc(Oc2ccc(F)cc2)cc1
TEST_VALUE: 60 to 62 °C

COMPOUND: Cn1cc(C(O)(c2ccc3c(cnn3C(=O)NC3CC3)c2)C(F)(F)F)c2ccccc21 (stereo not given)
TEST_VALUE: 116 to 118 °C

COMPOUND: CNC(=C[N+](=O)[O-])NOCCCc1csc(NC(=N)N)n1
TEST_VALUE: 144 to 146 °C

COMPOUND: COC(=O)CCCc1cc2nc(Cl)ccc2n1S(=O)(=O)c1ccc2ncccc2c1
TEST_VALUE: 133 to 141 °C

So what's the measured melting point for this one? `CC1=Cc2cc3c(cc2C(c2ccc([N+](=O)[O-])c(C)c2)=NN1C(=O)NC1CC1)OCO3`
198 to 202 °C

So what's the measured melting point for this one? `CNC(=C[N+](=O)[O-])NCCCCOc1cccc(CCN(C)C)c1`
59 to 63 °C

So what's the measured melting point for this one? CS(=O)(=O)c1ccc(C(CC2CCCC2)C(=O)O)cc1 (stereo not given)
152 to 154 °C

So what's the measured melting point for this one? `CN(C)CCn1cnc2cnc3ccccc3c21`
> 250 °C

So what's the measured melting point for this one? `CCCCN1C(=O)c2cnc(-c3ccccc3)nc2Nc2ccccc21`
140 to 141 °C

---

Catalogue of melting point readings, one per entry.

Example molecules with recorded melting point:
MOLECULE: C=CCn1c(C)nc2c3c(c(C(=O)OC)cc21)CCC1(Cc2ccccc2C1)N3
melting point: 142 °C
//
MOLECULE: COc1cc(Cc2cnc(N)nc2N)cc(-c2cccc(NS(=O)(=O)c3ccc(N)cc3)c2)c1OC
melting point: 223 to 226 °C
//
MOLECULE: N#Cc1c(N2CCN(C(=O)c3cccs3)CC2)c2cscc2n(CC(=O)c2ccccc2)c1=O
melting point: 308 °C
//
MOLECULE: COC1CCc2c(cc(-c3ccccc3)n2-c2ccc(O)c(C(=O)O)c2)C1 (stereo not given)
melting point: 207 to 210 °C
//
MOLECULE: COc1ccc2nc(-c3ccccc3)cc(CCNC(=O)C(F)(F)F)c2c1
melting point: 122 to 124 °C

So what's the measured melting point for this one? `C#CCc1c(C)nc2c(OCc3c(C)cccc3N)cccn12`
144 to 146 °C
